target: Gal-1 (Galectin-1) (Homo sapiens); assay: Isothermal titration calorimetry, binding to Gal-1; settings: ITC, 25 °C, phosphate buffer pH 7.2; one-set-of-sites model
Sequence (P09382 whole entry): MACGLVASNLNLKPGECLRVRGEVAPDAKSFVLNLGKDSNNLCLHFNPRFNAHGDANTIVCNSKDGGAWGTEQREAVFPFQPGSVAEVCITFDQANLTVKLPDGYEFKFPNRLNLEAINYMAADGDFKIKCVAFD
// −TΔS lookup, one value per entry
Give the number; kJ/mol is assumed, so skip it.

[
  {
    "Compound": "CC(=O)NC1C(OC(C)C(N)C(=O)O)OC(CO)C(O)C1OC1OC(CO)C(O)C(O)C1O (stereo not shown)",
    "Property Name": "−TΔS",
    "Obs Value": 55.6
  }
]

Value lookup for −TΔS; key = CC(=O)N[C@@H](C=O)[C@@H](O[C@@H]1O[C@H](CO)[C@H](O)[C@H](O)[C@H]1O)[C@@H](O)[C@H](O)CO
56.1

Value lookup for −TΔS; key = OC[C@H]1O[C@@H](O[C@H]2[C@H](O)[C@@H](O)C(O)O[C@@H]2CO)[C@H](O)[C@@H](O)[C@H]1O (mixture of isomers)
29.7

Value lookup for −TΔS; key = CC(=O)N[C@H]1C(O)O[C@H](CO)[C@@H](O[C@@H]2O[C@H](CO)[C@H](O)[C@H](O)[C@H]2O)[C@@H]1O (stereo partly shown)
18.4
